- assay.target: rat 5-HT4 (CG-7) receptor (Rattus norvegicus)
- Construct: two individual full length cDNA clones, S10-87 and S10-95, were isolated; expressed in transfected cells; host or cells: COS-7 (transient, DEAE-dextran)
- Sequence (Q62758 1-387 isoform Q62758-2): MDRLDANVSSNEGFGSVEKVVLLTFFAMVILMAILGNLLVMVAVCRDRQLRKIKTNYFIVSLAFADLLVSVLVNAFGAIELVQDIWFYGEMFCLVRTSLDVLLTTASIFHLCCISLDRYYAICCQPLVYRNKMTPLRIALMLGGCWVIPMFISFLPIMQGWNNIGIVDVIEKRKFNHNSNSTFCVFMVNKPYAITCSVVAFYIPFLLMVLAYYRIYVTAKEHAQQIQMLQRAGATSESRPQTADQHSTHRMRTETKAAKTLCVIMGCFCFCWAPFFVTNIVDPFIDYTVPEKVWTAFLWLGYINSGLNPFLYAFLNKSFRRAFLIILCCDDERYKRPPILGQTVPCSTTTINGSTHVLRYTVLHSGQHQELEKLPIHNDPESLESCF
- test.method.notes: cAMP formation in intact Cos-7 cells transiently expressing CG-7
- Format: cell-based
- assay.context: CG-7, stimulation of basal cAMP release

>  <compound>
COc1cc(N)c(Cl)cc1C(=O)NC1CN2CCC1CC2 (centres unmarked) [Zacopride, zacopride]

>  <times less potent than 5-HT>
~100 fold

$$$$
>  <compound>
COc1cc(N)c(Cl)cc1C(=O)NC1CCN(CCCOc2ccc(F)cc2)CC1OC (centres unmarked) [Cisapride, cisapride]

>  <times less potent than 5-HT>
about 10 fold

$$$$
>  <compound>
NCCc1c[nH]c2ccc(C(N)=O)cc12

>  <times less potent than 5-HT>
~200 fold

$$$$
>  <compound>
CC(N)Cc1c[nH]c2ccc(O)cc12 (centres unmarked)

>  <times less potent than 5-HT>
about 10 fold

$$$$
